- Test system: T1, TR66 antibody (CD3ε specific antibody, clone TR66)
- T1 construct: Whole antibody
- Experiment: apparent KD, peptide ELISA, biotinylated peptide on streptavidin plate, TR66 titrated, two-site saturation fit
pKd: −log10 of the molar value. Positions of bridges follow the written chain, without caps; N, C: chain ends. No end group written: not given here. *: point of attachment. Biotin = O=C1N[C@H]2[C@H](CS[C@H]2CCCCC(=O)*)N1
Class 1.0: pKd at least 7. Class 0.0: pKd below 7.

The following binders have reported results that may help.
WCTRPGDPQCGGGSK(Biotin) (disulfide 2-10 (inferred)) [aCD3-04-006 (WCTRPGDPQC-GGGS-K(Bio))]; 0.0
ACTRPGDPQCGGGSK(Biotin) (disulfide 2-10 (inferred), On the microarrays the peptide was immobilized covalently through a reactive moiety, not through K(Bio); also called clone 4; parental peptide) [aCD3 C7C-4 (ACTRPGDPQC-GGGS-K(Bio))]; 0.0
ACTRPGDPYCGGGSK(Biotin) (disulfide 2-10 (inferred)) [aCD3-04-009 (ACTRPGDPYC-GGGS-K(Bio))]; 0.0
ACTRPEDPQCGGGSK(Biotin) (disulfide 2-10 (inferred)) [aCD3-04-007 (ACTRPEDPQC-GGGS-K(Bio))]; 0.0

# check: pKd of ACTRPDDPECGGGSK(Biotin) (disulfide 2-10 (inferred), also called TR66 mimotope aCD3-04-013) [aCD3-04-013 (ACTRPDDPEC-GGGS-K(Bio))] is greater than or equal to 7
1.0
